Kindly state IC50 for each of the entries shown.
# measurement.target: C-Raf kinase (Homo sapiens, UniProt P04049, Y340D/Y341D)
# Construct: Y340D,; GST (N); purchased Sigma
# Sequence (P04049 307-648 Y340D/Y341D): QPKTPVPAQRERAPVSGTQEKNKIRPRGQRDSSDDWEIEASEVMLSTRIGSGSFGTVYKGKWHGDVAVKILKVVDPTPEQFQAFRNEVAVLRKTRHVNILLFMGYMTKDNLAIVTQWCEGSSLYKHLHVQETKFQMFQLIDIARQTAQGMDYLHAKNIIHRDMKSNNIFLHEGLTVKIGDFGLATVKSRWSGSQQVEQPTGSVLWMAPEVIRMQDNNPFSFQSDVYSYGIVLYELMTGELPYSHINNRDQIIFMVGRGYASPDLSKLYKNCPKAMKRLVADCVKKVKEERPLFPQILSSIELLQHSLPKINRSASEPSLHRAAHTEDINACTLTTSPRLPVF
# experiment.summary: Biochemical assay for C-Raf.1 (coupled pyruvate kinase/lactate dehydrogenase)
# stated.conditions: read-out: CRAF.1 IC50

Prompt: Give IC50 for this entry on C-Raf kinase (Homo sapiens, UniProt P04049, Y340D/Y341D): `COC(=O)Nc1cc(-c2cc(-c3cc(NC(=O)NCCC4CN(C)C4)cnc3C)cc(OCCO)n2)ccn1`
Completion: > 1000 nM

Prompt: Look up and report IC50, with C-Raf kinase (Homo sapiens, UniProt P04049, Y340D/Y341D) as system, for `Cc1ccc(NC(=O)N2CCC(F)(F)C2)cc1-c1cncc(-c2cc(NC(=O)C3CC3)ncn2)c1`
Completion: ≤ 100 nM

Prompt: # assay system C-Raf kinase (Homo sapiens, UniProt P04049, Y340D/Y341D): give IC50 of `CC(=O)Nc1cc(-c2cc(-c3cc(NC(=O)NCCC4(C(F)(F)F)CC4)c(F)cc3C)cc(C3CC3)n2)ccn1`
Completion: ≤ 100 nM

Prompt: Provide IC50, system C-Raf kinase (Homo sapiens, UniProt P04049, Y340D/Y341D), entry `COC(=O)Nc1cc(-c2cc(-c3cc(NC(=O)NCCC4(C)CC4)cnc3C)cc(OCCO)n2)ccn1`
Completion: ≤ 100 nM

Prompt: Recall the reported IC50 of `CNC(=O)c1cc(-c2cnnc(-c3cc(NC(=O)NCCC(C)(C)OC)cnc3C)c2)ccn1` when tested on C-Raf kinase (Homo sapiens, UniProt P04049, Y340D/Y341D).
Completion: > 1000 nM

Prompt: Lab note: record IC50 of `Cc1cc(F)c(NC(=O)NCCC(C)(C)F)cc1-c1cc(OCCO)nc(-c2ccnc3[nH]ncc23)c1` tested on C-Raf kinase (Homo sapiens, UniProt P04049, Y340D/Y341D).
Completion: ≤ 100 nM

Prompt: Write down the reported IC50 (system: C-Raf kinase (Homo sapiens, UniProt P04049, Y340D/Y341D)) of `Cc1ccc(NC(=O)N2CC[C@@H](C(C)C)C2)cc1-c1cncc(-c2cc(NC(=O)C3CC3)ncn2)c1`
Completion: ≤ 100 nM

Prompt: Tell me IC50 of `Cc1cc(F)c(NC(=O)NCCC(C)(C)F)cc1-c1cc(OCCO)nc(-c2ccncc2)c1` when tested on C-Raf kinase (Homo sapiens, UniProt P04049, Y340D/Y341D).
Completion: ≤ 100 nM

Prompt: Give IC50 for this entry on C-Raf kinase (Homo sapiens, UniProt P04049, Y340D/Y341D): COC(=O)Nc1cc(-c2cc(-c3cc(NC(=O)N4CCC(C(C)(C)O)C4)cnc3C)ccn2)ccn1 (centres unmarked)
Completion: 500 to 1000 nM

Prompt: Please report the measured IC50 for `COC(=O)Nc1cc(-c2cnnc(-c3cc(NC(=O)NCCC(C)(C)OC)cnc3C)c2)ccn1` tested on C-Raf kinase (Homo sapiens, UniProt P04049, Y340D/Y341D).
Completion: 500 to 1000 nM

Prompt: Please indicate recorded IC50 of `Cc1ccc(NC(=O)NCCC(C)(C)C)cc1-c1cc(N2CCOCC2)nc(N2CC(O)C2)n1` measured with C-Raf kinase (Homo sapiens, UniProt P04049, Y340D/Y341D).
Completion: 100 to 500 nM

Prompt: # return IC50 for `Cc1ncc(NC(=O)NC2CC(C)(C)C2)cc1-c1cc(OCCO)nc(-c2ccnc(NC(=O)C3CC3)c2)n1` , test system: C-Raf kinase (Homo sapiens, UniProt P04049, Y340D/Y341D)
Completion: ≤ 100 nM

Prompt: Write down the reported IC50 (system: C-Raf kinase (Homo sapiens, UniProt P04049, Y340D/Y341D)) of `Cc1ccc(NC(=O)Nc2cccc(C(F)(F)F)c2)cc1-c1cc(OCCO)nc(N2CCOCC2)c1`
Completion: ≤ 100 nM

Prompt: Please indicate recorded IC50 of `Cc1ncc(NC(=O)NCCC(C)(C)C)cc1-c1cc(N2CCOCC2)c(=O)n(C)n1` measured with C-Raf kinase (Homo sapiens, UniProt P04049, Y340D/Y341D).
Completion: > 1000 nM

Prompt: Give IC50 only, for `CNC(=O)c1cc(-c2cnnc(-c3cc(NC(=O)N4CC[C@H](OC)C4)cnc3C)c2)ccn1` , using C-Raf kinase (Homo sapiens, UniProt P04049, Y340D/Y341D) data.
Completion: > 1000 nM

Prompt: Tell me IC50 of `Cc1ccc(NC(=O)N2CC[C@H](C(C)C)C2)cc1-c1cncc(-c2cc(NC(=O)C3CC3)ncn2)c1` when tested on C-Raf kinase (Homo sapiens, UniProt P04049, Y340D/Y341D).
Completion: ≤ 100 nM

Prompt: Check C-Raf kinase (Homo sapiens, UniProt P04049, Y340D/Y341D) data and give IC50 for `Cc1ccc(NC(=O)NCCC(C)(C)C)cc1-c1cc(-c2cnn(C)c2)nc(N2CCOCC2)c1` .
Completion: 100 to 500 nM

Prompt: Find IC50 for `COC(=O)Nc1cc(-c2nc(OCCO)cc(-c3cc(NC(=O)NC4CC(C)(C)C4)c(F)cc3C)n2)ccn1` on C-Raf kinase (Homo sapiens, UniProt P04049, Y340D/Y341D) and write it down.
Completion: ≤ 100 nM

Prompt: Determine reported IC50 for `COC(=O)Nc1cc(-c2cc(-c3cc(NC(=O)NCCN4CCC4)c(F)cc3C)cc(OCCO)n2)ccn1` ; test system: C-Raf kinase (Homo sapiens, UniProt P04049, Y340D/Y341D).
Completion: > 1000 nM

Prompt: Please respond with reported IC50 (system C-Raf kinase (Homo sapiens, UniProt P04049, Y340D/Y341D)) for `Cc1ccc(NC(=O)Nc2cn(C)nc2C(F)(F)F)cc1-c1cc(OCCO)nc(N2CCOCC2)c1` .
Completion: > 1000 nM

Prompt: Jot down IC50 (C-Raf kinase (Homo sapiens, UniProt P04049, Y340D/Y341D)) of `COC(C)(C)CCNC(=O)Nc1cc(-c2ccnc(-c3ccnc(NC(=O)C4CC4)c3)n2)c(C)cc1F` .
Completion: ≤ 100 nM

Prompt: With C-Raf kinase (Homo sapiens, UniProt P04049, Y340D/Y341D) as the test system, provide measured IC50 for this compound: `CC(=O)Nc1cc(-c2cc(-c3cc(NC(=O)NCCC(C)(C)C(F)(F)F)c(F)cc3C)cc(C3CC3)n2)ccn1`
Completion: ≤ 100 nM

Prompt: Consider the compound `Cc1cc(F)c(NC(=O)NCCC2(C)CC2)cc1-c1cc(OCCO)nc(-c2ccncc2)c1` tested on C-Raf kinase (Homo sapiens, UniProt P04049, Y340D/Y341D); state its IC50.
Completion: ≤ 100 nM

---

Hi there, I'd appreciate the recorded IC50 for every entry that follows.
# Tested on: A375 cells
# experiment.summary: A375 cell proliferation assay (1), resazurin, 96-well
# Assay type: cell-based
# stated.conditions: Homo sapiens, A-375, inhibition of cell proliferation

Prompt: Identify measured IC50 obtained with A375 cells for `Cc1cc(F)c(NC(=O)NCCC(C)(C)C#N)cc1-c1cccc(-c2cc(NC(=O)C3CC3)ncn2)c1` .
Completion: 1000 to 10000 nM

Prompt: Report IC50 from A375 cells testing of `Cc1ncc(NC(=O)NC[C@H](O)C(C)(C)C)cc1-c1ccnc(-c2ccnc(NC(=O)C3CC3)c2)c1`
Completion: 1000 to 10000 nM

Prompt: Print A375 cells IC50 for `COC(=O)Nc1cc(-c2nc(OCCO)cc(-c3cc(NC(=O)NCCC(C)(C)F)c(F)cc3C)n2)ccn1` .
Completion: 100 to 500 nM

---

Please go through the items and note down their pIC50.
# Test system: A375 cells
# experiment.summary: A375 cell proliferation assay (1), resazurin, 96-well
# Assay type: cell-based
# stated.conditions: Homo sapiens, A-375, inhibition of cell proliferation
pIC50: −log10 of the molar value.

Prompt: Kindly indicate its recorded pIC50. Item: `COC(C)(C)CCNC(=O)Nc1cc(-c2ccnc(-c3ccnc(NC(=O)C4CC4)c3)n2)c(C)cc1F`
Completion: 6.00 to 6.30

Prompt: Complete the entry with pIC50 for `Cc1ccc(NC(=O)N2CCC3(CC3)C2)cc1-c1cncc(-c2cc(NC(=O)C3CC3)ncn2)c1`
Completion: 6.30 to 7.00

Prompt: Entry COC(=O)Nc1cc(-c2cnnc(-c3cc(NC(=O)N4CCC(C(C)(C)C)C4)ccc3C)c2)ccn1 (stereo not drawn) needs its pIC50 filled in; supply it.
Completion: 6.30 to 7.00

---

# measurement.target: C-Raf kinase (Homo sapiens, UniProt P04049, Y340D/Y341D)
# Construct: Y340D,; GST (N); purchased Sigma
# experiment.summary: Biochemical assay for C-Raf.1 (coupled pyruvate kinase/lactate dehydrogenase)
# stated.conditions: read-out: CRAF.1 IC50
pIC50: −log10 of the molar value.
Provide the reported pIC50 of each item.

Prompt: Entry Cc1cc(F)c(NC(=O)NCCC(C)(C)F)cc1-c1cc(-c2ccnc(NC(=O)C3CC3)c2)cnn1 [Example 139] needs its pIC50 filled in; supply it.
Completion: ≥ 7.00

Prompt: Give a short answer stating reported pIC50 for COC(C)(C)CCNC(=O)Nc1ccc(C)c(-c2cc(-c3cnn(C)c3)nc(N3CCOCC3)c2)c1 [Example 38] .
Completion: ≥ 7.00

Prompt: Give the value of pIC50 reported for the following: COC(=O)Nc1cc(-c2cc(-c3cc(NC(=O)NCCC(C)(C)F)cnc3C)cc(OCCO)n2)ccn1 [Example 165]
Completion: ≥ 7.00

Prompt: Given the compound Cc1ncc(NC(=O)NCCC2(C)CC2)cc1-c1cc(OCCO)nc(-c2ccnc(NC(=O)C3CC3)c2)c1 [Example 113] , write its reported pIC50.
Completion: ≥ 7.00

Prompt: In one line, give reported pIC50 of the entry Cc1ncc(NC(=O)NCCC2(C)CC2)cc1-c1ccnc(-c2ccnc(NC(=O)C3(C#N)CC3)c2)c1 [Example 169] .
Completion: ≥ 7.00
